- Assay Name: Anti-inflammatory, granuloma test
- Type: in vivo
- Conditions: Dose : 200 mg/kg
Quantity Kind: Anti-inflammatory %Inhibition Granuloma
Please answer using the number first and the unit second.

The following molecules have reported results that may help.
{"columns": ["Molecule", "Quantity Kind", "Recorded Measurement"],
 "data": [
  ["NC(=O)Oc1ccccc1C(=O)Oc1ccccc1 [compound 4]", "Anti-inflammatory %Inhibition Granuloma", "57.65%"],
  ["Cc1cccc(OC(=O)c2ccccc2OC(N)=O)c1 [compound 8]", "Anti-inflammatory %Inhibition Granuloma", "33.25%"],
  ["NC(=O)Oc1ccccc1C(=O)Oc1ccc(Cl)cc1 [compound 6]", "Anti-inflammatory %Inhibition Granuloma", "41.45%"]
]}

Query string: Name the recorded Anti-inflammatory %Inhibition Granuloma of the item NC(=O)Oc1ccccc1C(=O)Oc1ccccc1Cl [compound 5] in your answer.
Result string: 35.06%

Query string: Name the recorded Anti-inflammatory %Inhibition Granuloma of the item Cc1cc(OC(=O)c2ccccc2OC(N)=O)ccc1Cl [compound 9] in your answer.
Result string: 24.04%

Query string: Name the recorded Anti-inflammatory %Inhibition Granuloma of the item NC(=O)Oc1ccccc1C(=O)Oc1ccc(Cl)cc1Cl [compound 7] in your answer.
Result string: 34.40%

Query string: Name the recorded Anti-inflammatory %Inhibition Granuloma of the item CCCCCCCCCCCCCCCc1cccc(OC(=O)c2ccccc2OC(N)=O)c1 [compound 10] in your answer.
Result string: 33.55%

---

- Assay Name: Analgesic protection, writhing test
- Assay type: in vivo
- Parameters: unit not given here
- Conditions: Dose : 200 mg/kg
Hi! Just check whether Analgesic protection Writhing is below 70. Below gives YES, equal or above gives NO.

# count of solved cases: 3
{"columns": ["Compound", "Category"],
 "data": [
  ["NC(=O)Oc1ccccc1C(=O)Oc1ccc(Cl)cc1Cl [compound 7]", "NO"],
  ["NC(=O)Oc1ccccc1C(=O)Oc1ccc(Cl)cc1 [compound 6]", "NO"],
  ["Cc1cccc(OC(=O)c2ccccc2OC(N)=O)c1 [compound 8]", "NO"]
]}

Query string: # TODO verify Analgesic protection Writhing < 70 strictly for this compound: CCCCCCCCCCCCCCCc1cccc(OC(=O)c2ccccc2OC(N)=O)c1 [compound 10]
Result string: YES

---

Listed next: entries and their corresponding Analgesic protection Writhing.
- Assay Name: Analgesic protection, writhing test
- Type: in vivo
- Parameters: unit not given here
- Conditions: Dose : 200 mg/kg
In your answer, state the number alone without any accompanying words.

The following compounds have reported results that may help.
{"columns": ["Item Smiles", "Recorded Measurement"],
 "data": [
  ["NC(=O)Oc1ccccc1C(=O)Oc1ccccc1Cl", 70.00],
  ["NC(=O)Oc1ccccc1C(=O)Oc1ccccc1", 72.00]
]}

API: the following record is the query input.
Query string: Name the recorded Analgesic protection Writhing of the item "Cc1cc(OC(=O)c2ccccc2OC(N)=O)ccc1Cl" in your answer.
Result string: 68.00
